Experiment: Metabolic stability in human liver microsomes
Type: in vitro ADME
Conditions: both sexes, human, microsomes, pH 7.4; Table 5

{"columns": ["compound", "microsomal CLint [µL/min/mg]"],
 "data": [
  ["CCCCCc1cc(O)c2c(c1)OC(C)(C)[C@@H]1CCC(C)=C[C@@H]21 [THC, Δ9-Tetrahydrocannabinol, reference compound]", 64.2],
  ["CCCCCc1cc(O)c2c(c1)OC(C)(CCC=C(C)C)C=C2 (centres unmarked) [CBC, Cannabichromene, reference compound]", 6.21]
]}

###

Assay: Metabolic stability in human liver microsomes
Format: in vitro ADME
Details: both sexes, human, microsomes, pH 7.4, Table 5; average of determinations; read-out: Half-life in human liver microsomes (avg.) (converted)
Method: The prodrugs were incubated with the human liver microsomes at 37° C. as an indication of the susceptibility of prodrugs to undergo bioconversion in the liver. […] After immediate mixing and centrifugation (5 min at 14.000 rpm), the resulting clear supernatant was analyzed for the remaining prodrug by HPLC.

{"columns": ["compound", "half-life [h]"],
 "data": [
  ["CCCCCc1cc(OC(=O)C2CCNC2)c2c(c1)OC(C)(C)[C@@H]1CCC(C)=C[C@@H]21 (stereo partly drawn) [THCp2]", 2.44],
  ["CCCCCc1cc(O)c(C/C=C(\\C)CCC=C(C)C)c(OC(=O)C2CCNC2)c1 (stereo not drawn) [CBGp1]", 0.66],
  ["CCCCCc1cc(O)c2c(c1)OC(C)(CCC=C(C)C)C=C2 (stereo not drawn) [CBC, Cannabichromene, reference compound]", 1.86],
  ["CCCCCc1cc(OC(=O)N2CCN(C)CC2)c2c(c1)OC(C)(C)[C@@H]1CCC(C)=C[C@@H]21 [THCp1]", 3.83],
  ["CCCCCc1cc(O)c2c(c1)OC(C)(C)[C@@H]1CCC(C)=C[C@@H]21 [THC, Δ9-Tetrahydrocannabinol, reference compound]", 0.18],
  ["CCCCCc1cc(OC(=O)N2CCNCC2)c2c(c1)OC(C)(C)[C@@H]1CCC(C)=C[C@@H]21 [THCp3]", 3.65]
]}

Taken from patent US20220339150A1.
